Test system: A549 NSCLC
Assay: NCI tumour cell line growth inhibition, 48 h
measured.metric: TGI

INSERT INTO results (molecule, reported_result) VALUES
  ('O=C(O)CCCCCCC[C@@H]1S[C@H]1CCCCCCO', '> 100 µM'),
  ('C/C=C(C)/C=C/CC(C)CCC=C(C)C (configuration not stated)', '> 100 µM'),
  ('Cc1cc2c(cc1Cl)SC1=CC(=O)N(c3ccccc3)C1=NS2(=O)=O', '> 100 µM'),
  ('CC(=O)Oc1ccc2c(c1)Oc1cc(C(C)=O)ccc1C21OC(=O)c2ccccc21 (configuration not stated)', '> 100 µM'),
  ('COC(=O)Nc1nc2ccc(Oc3ccc(NC(=O)Nc4cccc(C(=O)O)c4)cc3)cc2[nH]1', '> 25 µM'),
  ('C1=Cc2ccccc2Nc2ccccc21', '> 100 µM'),
  ('COc1ccc(C(=O)C(c2ccc(OC)cc2)C2(O)C(=O)Nc3ccccc32)cc1 (configuration not stated)', '> 100 µM'),
  ('COc1cc2nc3sc(C(=O)Nc4ccc(C(=O)OC(C)C)cc4)c(C(=O)Nc4ccc(Cl)cc4C)n3c(=O)c2cc1OC', '> 100 µM'),
  ('O=[N+]([O-])C(Cl)C(Cl)C(Cl)=C(Cl)Cl (configuration not stated)', '> 100 µM'),
  ('Nc1ccccc1CCCC(=O)O', '> 100 µM'),
  ('O=C1/C(=C/c2cccnc2)C(n2cccc2)c2c(Br)sc(Br)c21 (configuration not stated)', '32.5 µM'),
  ('COC(=O)C1=C(O)c2cc(OC)c(OC)c(OC)c2[C@H](c2cc(OC)c(OC)c(OC)c2)C1C(=O)OC (some centres not stated)', '> 100 µM');
